Tested on: C6 glioma cells
Test: Protection against 5 mM glutamate cytotoxicity in glioma C6 cultures
Conditions: Rattus norvegicus, C6 glioma, 24 h, read-out: % Cell survival
So basically, if viability at 10 µM comes in under 80% it's 1.0, and if it's 80% or more it's 0.0.

[[record]]
compound = "Cc1c(C)c2c(c(C)c1O)CC(CC(=O)NCCO)O2 (stereo not drawn)"
targetdesc = "C6 glioma cells"
class = 0.0

[[record]]
compound = "Cc1c(C)c2c(c(C)c1O)CCC(C)(C(=O)NCCCO)O2 (stereo not drawn)"
targetdesc = "C6 glioma cells"
class = 0.0

[[record]]
compound = "Cc1c(C)c2c(c(C)c1OC(=O)CCC(=O)NCCO)CCC(C)(CCCC(C)CCCC(C)CCCC(C)C)O2 (stereo not drawn)"
targetdesc = "C6 glioma cells"
class = 1.0

[[record]]
compound = "Cc1c(C)c2c(c(C)c1O)CCC(C)(C(=O)O)O2 (stereo not drawn) [reference compound]"
targetdesc = "C6 glioma cells"
class = 1.0


// next entry
// query Find out if reported viability at 10 µM for Cc1c(C)c2c(c(C)c1O)CC(CC(=O)NCCCO)O2 (stereo not drawn) is less than 80%
// result 0.0
